Please go through the items and note down their EC50.
Tested on: Pseudotyped HCV GT1b particles (HCVpp), entry into Huh7-high CD81 cells
Assay: microbe, parasite or virus in culture
Type: cell-based, HCV GT1b Con1 strain
Settings: Hepatitis C virus, GT1B, 72 h, read-out: HCVpp GT-1b (EC50, μM)
Where a name gives a salt, the structure may show the parent alone.
The figure you give is taken to be in µM; do not add the unit.

Request: Returns the measured EC50 for the input compound. Input: Nc1nc(Nc2cc(Cl)c(-c3ccc(S(=O)(=O)C4CCCNC4)cc3)c(C(F)(F)F)c2)n[nH]1 (stereo not shown) [Compound 29, hydrochloride]
Result: 0.09

Request: What do you have for "CS(=O)(=O)NCc1ccc(-c2c(Cl)cc(Nc3n[nH]c(N)n3)cc2C(F)(F)F)cc1" ?
Result: 0.038

Request: What do you have for "COc1cccc(-c2c(Cl)cc(Nc3n[nH]c(N)n3)cc2Cl)c1" ?
Result: 0.839

Request: What do you have for "CC(C)(C)OC(=O)N1CCN(S(=O)(=O)c2ccc(-c3c(Cl)cc(Nc4n[nH]c(N)n4)cc3C(F)(F)F)cc2)CC1" ?
Result: 0.03

Request: What do you have for "CS(=O)(=O)NCCc1ccc(-c2c(Cl)cc(Nc3n[nH]c(N)n3)cc2C(F)(F)F)cc1" ?
Result: 0.087

Request: What do you have for "CC(C)CCS(=O)(=O)c1ccc(-c2c(Cl)cc(Nc3n[nH]c(N)n3)cc2C(F)(F)F)cc1" ?
Result: 0.013

Request: What do you have for "Nc1nc(Nc2cc(Cl)c(-c3ccc(OC[C@H]4CCCN4)cc3)c(Cl)c2)n[nH]1" ?
Result: 0.147

----------
Tested on: Pseudotyped HCV GT1a particles (HCVpp), entry into Huh7-high CD81 cells
Test: microbe, parasite or virus in culture
Format: cell-based, HCV GT1a H77 strain
Details: Hepatitis C virus, 72 h, read-out: HCVpp GT-1a (EC50, μM)
EC50 less than 0.007 µM is Yes; EC50 greater than or equal to 0.007 µM is No.

Request: Is EC50 strictly under 0.007 µM for the entry "Nc1nc(Nc2cc(Cl)c(-c3cccc(C(=O)O)c3)c(Cl)c2)n[nH]1" ?
Result: No

Request: What do you have for "Nc1nc(Nc2cc(Cl)c(-c3ccc(OC[C@@H]4CCCN4)cc3)c(Cl)c2)n[nH]1" ?
Result: Yes

Request: What do you have for "Nc1nc(Nc2cc(Cl)c(-c3cccc4ccccc34)c(Cl)c2)n[nH]1" ?
Result: No

Request: What do you have for "CNS(=O)(=O)c1ccc(-c2c(Cl)cc(Nc3n[nH]c(N)n3)cc2Cl)cc1" ?
Result: Yes

Request: What do you have for "CS(=O)(=O)Nc1ccc(-c2c(Cl)cc(Nc3n[nH]c(N)n3)cc2Cl)cc1" ?
Result: Yes

Request: What do you have for "CN(C)S(=O)(=O)c1ccc(-c2c(Cl)cc(Nc3n[nH]c(N)n3)cc2C(F)(F)F)cc1" ?
Result: No

Request: What do you have for "CNC(=O)c1cccc(-c2c(Cl)cc(Nc3n[nH]c(N)n3)cc2Cl)c1" ?
Result: No

Request: What do you have for "Nc1nc(Nc2cc(Cl)c(-c3cccc(Cl)c3)c(Cl)c2)n[nH]1" ?
Result: No

Request: What do you have for "CS(=O)(=O)c1cccc(-c2c(Cl)cc(Nc3n[nH]c(N)n3)cc2Cl)c1" ?
Result: No

Request: What do you have for "CC(C)(C)NS(=O)(=O)c1ccc(-c2c(Cl)cc(Nc3n[nH]c(N)n3)cc2C(F)(F)F)cc1" ?
Result: No

Request: What do you have for "COc1cccc(-c2c(Cl)cc(Nc3n[nH]c(N)n3)cc2Cl)c1" ?
Result: No

Request: What do you have for "Nc1nc(Nc2cc(Cl)c(-c3ccc(NC(=O)CCCC[C@@H]4SC[C@@H]5NC(=O)N[C@@H]54)cc3)c(Cl)c2)n[nH]1" ?
Result: Yes

Request: What do you have for "CC(C)S(=O)(=O)c1ccc(-c2c(Cl)cc(Nc3n[nH]c(N)n3)cc2C(F)(F)F)cc1" ?
Result: No
